System: CAL-51
measurement-description: drug sensitivity score (DSS), CellTox Green (DSS (AUC-based score)); higher = stronger drug effect (viability inhibition or cytotoxicity); extreme values may be limits of the assay
settings: incubation time: 72 h
assay-readout: drug sensitivity score

Using known records, supply drug sensitivity score for CC(=O)Nc1ccc(C(=O)Nc2ccccc2N)cc1
0

Using known records, supply drug sensitivity score for CS(=O)(=O)c1ccc(C2=C(c3ccccc3)C(=O)OC2)cc1
0

Using known records, supply drug sensitivity score for Oc1nc(-c2ccc(C(F)(F)F)cc2)nc2c1CSCC2
0

Using known records, supply drug sensitivity score for Cn1c(Nc2ccc(C(F)(F)F)cc2)nc2cc(Oc3ccnc(-c4ncc(C(F)(F)F)[nH]4)c3)ccc21
0

Using known records, supply drug sensitivity score for O=C(O)c1ccc(-c2c[nH]c3ncc(-c4ccccc4)cc23)cc1C1CCCC1
0

Using known records, supply drug sensitivity score for COc1cc2nccc(Oc3ccc(NC(=O)C4(C(=O)Nc5ccc(F)cc5)CC4)cc3)c2cc1OC [Cabozantinib]
0

Using known records, supply drug sensitivity score for CO[C@H]1/C=C\C=C(/C)C(=O)NC2=CC(=O)C(NCCN(C)C)=C(C[C@@H](C)C[C@H](OC)[C@H](O)[C@@H](C)/C=C(\C)[C@@H]1OC(N)=O)C2=O
6.02

Using known records, supply drug sensitivity score for CN[C@@H]1C[C@H]2O[C@@](C)([C@@H]1OC)n1c3ccccc3c3c4c(c5c6ccccc6n2c5c31)C(=O)N[C@H]4O
17

Using known records, supply drug sensitivity score for CNCc1ccc(-c2[nH]c3cc(F)cc4c3c2CCNC4=O)cc1
0

Using known records, supply drug sensitivity score for C=C(c1ccc(C(=O)O)cc1)c1cc2c(cc1C)C(C)(C)CCC2(C)C
0

Using known records, supply drug sensitivity score for C[C@]12CC[C@@H]3c4ccc(O)cc4C[C@@H](CCCCCCCCC[S+]([O-])CCCC(F)(F)C(F)(F)F)[C@H]3[C@@H]1CC[C@@H]2O (some centres undefined)
0

Using known records, supply drug sensitivity score for CC1(C)NC(=O)N(c2ccc([N+](=O)[O-])c(C(F)(F)F)c2)C1=O [Nilutamide]
0

Using known records, supply drug sensitivity score for NC(=O)Nc1cc(-c2cccc(F)c2)sc1C(=O)N[C@H]1CCCNC1
3.37

Using known records, supply drug sensitivity score for Cc1ccc(-n2nc(C(C)(C)C)cc2NC(=O)Nc2ccc(OCCN3CCOCC3)c3ccccc23)cc1
0
